Activity values by entry
# STUDY SYSTEM: UDP-N-acetylmuramoylalanine--D-glutamate ligase (Escherichia coli K-12)
# PROTOCOL NOTES: Residual activity of MurD from Escherichia coli at 1 mM
State the answer as a number, implicitly in %.

Sample records with Activity:
- CC(NC(=O)Cc1ccc2c(c1)OCO2)P(=O)(O)CC(CCC(=O)O)C(=O)O (centres undefined): 36
- CC(C)CC(NC(=O)OCc1ccccc1)P(=O)(O)CC(CCC(=O)O)C(=O)O (centres undefined): 65
- CC(NS(=O)(=O)Cc1ccccc1[N+](=O)[O-])P(=O)(O)CC(CCC(=O)O)C(=O)O (centres undefined): 30
- CC(NS(=O)(=O)Cc1cccc([N+](=O)[O-])c1)P(=O)(O)CC(CCC(=O)O)C(=O)O (centres undefined): 22
- CC(NC(=O)/C=C/c1ccc2c(c1)OCO2)P(=O)(O)CCC(=O)O (centres undefined): 91
- CC(C)C(NC(=O)OCc1ccccc1)P(=O)(O)CC(CCC(=O)O)C(=O)O (centres undefined): 66

Sure, the documented Activity for CC(NC(=O)/C=C/c1cccc(O)c1)P(=O)(O)CC(CCC(=O)O)C(=O)O (centres undefined) is 23

Form: compound = CC(NC(=O)/C=C/c1ccccc1)P(=O)(O)CC(CCC(=O)O)C(=O)O (centres undefined) ; Activity = 28

The reported Activity of the compound CC(NC(=O)[C@H](C)NS(=O)(=O)Cc1ccc([N+](=O)[O-])cc1)P(=O)(O)CCC(=O)O (some centres undefined) was 100
